# target_system: human CD33 R69G (human) (UniProt P20138)
# Sequence (P20138 18-259 R69G): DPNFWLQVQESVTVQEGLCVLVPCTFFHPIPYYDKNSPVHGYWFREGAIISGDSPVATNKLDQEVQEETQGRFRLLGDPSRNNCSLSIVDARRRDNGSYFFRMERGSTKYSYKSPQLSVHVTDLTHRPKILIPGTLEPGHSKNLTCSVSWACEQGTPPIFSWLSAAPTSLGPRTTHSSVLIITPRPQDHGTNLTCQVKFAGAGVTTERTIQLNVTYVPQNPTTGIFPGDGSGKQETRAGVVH
# test_name: SPR, Fab captured, 37C
assay_readout: koff (s⁻¹)
Give bare numbers, in s⁻¹.

INSERT INTO measurements (binder, assay_readout, reading) VALUES
  ('ADI-11809 Fab (Fab, V domains shown) VH: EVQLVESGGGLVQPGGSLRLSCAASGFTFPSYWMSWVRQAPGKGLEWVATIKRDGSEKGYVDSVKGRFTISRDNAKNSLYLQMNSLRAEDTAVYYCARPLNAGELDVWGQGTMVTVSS VL: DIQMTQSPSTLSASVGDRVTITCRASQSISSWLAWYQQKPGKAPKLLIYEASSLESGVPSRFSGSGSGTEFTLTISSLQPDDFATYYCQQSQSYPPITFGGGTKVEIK', 'koff', 0.000179),
  ('ADI-11819 Fab (Fab, V domains shown) VH: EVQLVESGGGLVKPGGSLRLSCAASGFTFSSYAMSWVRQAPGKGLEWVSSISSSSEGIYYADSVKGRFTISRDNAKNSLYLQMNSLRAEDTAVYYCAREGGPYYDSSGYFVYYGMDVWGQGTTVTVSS VL: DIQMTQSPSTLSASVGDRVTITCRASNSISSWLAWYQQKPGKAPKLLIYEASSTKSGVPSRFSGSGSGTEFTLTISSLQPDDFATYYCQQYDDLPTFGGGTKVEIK', 'koff', 0.000244),
  ('ADI-11830 Fab (Fab, V domains shown) VH: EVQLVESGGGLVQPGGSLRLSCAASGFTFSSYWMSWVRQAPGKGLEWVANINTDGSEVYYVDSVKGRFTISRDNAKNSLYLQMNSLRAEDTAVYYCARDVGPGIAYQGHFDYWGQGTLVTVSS VL: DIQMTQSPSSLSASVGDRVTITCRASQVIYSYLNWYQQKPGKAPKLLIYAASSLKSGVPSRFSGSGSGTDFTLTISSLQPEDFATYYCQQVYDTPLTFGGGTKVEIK', 'koff', 0.00663);

Switching to the query record.
// koff lookup, binder = ADI-11828 Fab (Fab, V domains shown) VH: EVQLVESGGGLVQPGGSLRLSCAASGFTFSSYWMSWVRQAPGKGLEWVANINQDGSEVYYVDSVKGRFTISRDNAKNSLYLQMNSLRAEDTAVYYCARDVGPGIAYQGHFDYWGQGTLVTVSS VL: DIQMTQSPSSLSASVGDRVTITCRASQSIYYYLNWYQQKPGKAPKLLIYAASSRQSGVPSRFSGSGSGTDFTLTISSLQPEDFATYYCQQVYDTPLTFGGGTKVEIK , result: 0.007
